- Tested on: SK-MEL-2 melanoma
- testMethodNotes: NCI tumour cell line growth inhibition, 48 h
propertyMeasured: TGI

>  <compound>
N#C/C(=C\c1cc(O)c(O)c(O)c1)C(N)=O

>  <system>
SK-MEL-2 melanoma

>  <propertyMeasured>
TGI

>  <result>
> 100 µM

$$$$
>  <compound>
CCOC(=O)C1=C(C)NC(=O)NC1c1ccc(OC)cc1OC (stereo not drawn)

>  <system>
SK-MEL-2 melanoma

>  <propertyMeasured>
TGI

>  <result>
> 100 µM

$$$$
>  <compound>
C[N+](C)(C)CC(=O)N/N=C(\Cc1nc2ccc([N+](=O)[O-])cc2[nH]c1=O)C(=O)Nc1nc2ccc([N+](=O)[O-])cc2s1

>  <system>
SK-MEL-2 melanoma

>  <propertyMeasured>
TGI

>  <result>
> 100 µM

$$$$

* * *

- Tested on: SK-OV-3 ovarian
- testMethodNotes: NCI tumour cell line growth inhibition, 48 h
propertyMeasured: TGI

>  <compound>
C=C1N(S(=O)(=O)c2ccc(C)cc2)C(=O)OCC12CCCC2

>  <propertyMeasured>
TGI

>  <result>
> 100 µM

$$$$
>  <compound>
C/C(=C\COP(=O)(O)OP(=O)(O)O)CCCCCCOCc1ccccc1

>  <propertyMeasured>
TGI

>  <result>
> 100 µM

$$$$
>  <compound>
Nc1cccc2c1-c1c(cccc1[N+](=O)[O-])C2=O

>  <propertyMeasured>
TGI

>  <result>
> 100 µM

$$$$
>  <compound>
CNc1cc([N+](=O)[O-])ccc1C(=O)N1CCC[C@H]1CO

>  <propertyMeasured>
TGI

>  <result>
> 100 µM

$$$$
>  <compound>
C=C(C)C1CC[C@@](C)(O)[C@H](C#N)C1 (some centres not stated)

>  <propertyMeasured>
TGI

>  <result>
> 100 µM

$$$$
>  <compound>
CN(C)c1ccc(/C=C(\C#N)c2cc3ccccc3[nH]2)cc1

>  <propertyMeasured>
TGI

>  <result>
> 100 µM

$$$$
>  <compound>
COC(=O)c1cc(CC2Cc3cc4c(cc3C2=O)CCC4)cc2c1CCC2 (configuration not stated)

>  <propertyMeasured>
TGI

>  <result>
> 100 µM

$$$$
>  <compound>
Cc1ccc(/C=N/NC(=O)c2ccccc2Oc2ccccc2)o1

>  <propertyMeasured>
TGI

>  <result>
> 100 µM

$$$$
>  <compound>
O/N=C(\CC(O)(C(F)(F)F)C(F)(F)F)c1cccs1

>  <propertyMeasured>
TGI

>  <result>
> 10 µM

$$$$
>  <compound>
COc1ccc(OC)c(Nc2nc3nonc3nc2Nc2cccc(Br)c2)c1

>  <propertyMeasured>
TGI

>  <result>
4.1 µM

$$$$
>  <compound>
Cc1cccc(NC(=O)C(=O)C(C2OC(=O)c3ccccc32)[N+](=O)[O-])c1C (configuration not stated)

>  <propertyMeasured>
TGI

>  <result>
26.7 µM

$$$$
>  <compound>
O=C(NN1C(=O)CS(=O)(=O)C1c1ccc(Cl)c(Cl)c1)c1ccncc1 (configuration not stated)

>  <propertyMeasured>
TGI

>  <result>
> 100 µM

$$$$
>  <compound>
CC1(C)c2ccccc2N2C(c3ccccc3)=NOC21C (configuration not stated)

>  <propertyMeasured>
TGI

>  <result>
> 100 µM

$$$$
>  <compound>
Cc1nc2sc(C(=O)Nc3cccc(Br)c3C)c(N)c2cc1C(O)c1ccccc1 (configuration not stated)

>  <propertyMeasured>
TGI

>  <result>
75.8 µM

$$$$
>  <compound>
COc1ccc(Cn2cc(COc3cc(/C=C/C(=O)c4cc(OC)c(OC)c(OC)c4)ccc3OC)nn2)cc1

>  <propertyMeasured>
TGI

>  <result>
9.18 µM

$$$$
>  <compound>
CCO/C(O)=C(/C(=N)N1CCOCC1)C(=O)NC(C)C

>  <propertyMeasured>
TGI

>  <result>
> 100 µM

$$$$
>  <compound>
COc1cc(S(=O)(=O)Nc2ccc(-c3csc(N4C(=O)C(C)SC4c4cccs4)n3)cc2)ccc1Cl (configuration not stated)

>  <propertyMeasured>
TGI

>  <result>
> 100 µM

$$$$
>  <compound>
COC(=O)[C@H](Cc1cn(C)cn1)NC(=O)[C@H](CC(=O)OCc1ccccc1)NC(=O)Nc1cc(C(F)(F)F)cc(C(F)(F)F)c1

>  <propertyMeasured>
TGI

>  <result>
21.4 µM

$$$$
>  <compound>
CC1(C)CC[C@]2(C(=O)O)CC[C@]3(C)C(=CCC4=C5C[C@H](O)[C@H](O)[C@@](C)(CO)[C@@]5(C)CC[C@]43C)[C@@H]2C1

>  <propertyMeasured>
TGI

>  <result>
> 100 µM

$$$$
>  <compound>
CC(=O)OCC1OC(n2c(C)c(C(C)=O)c(-c3ccco3)c(C#N)c2=S)C(OC(C)=O)C(OC(C)=O)C1OC(C)=O (configuration not stated)

>  <propertyMeasured>
TGI

>  <result>
> 100 µM

$$$$
>  <compound>
O=C(Nc1ccncc1)C(=O)c1cn(S(=O)(=O)c2cccc(Cl)c2)c2ccccc12

>  <propertyMeasured>
TGI

>  <result>
> 100 µM

$$$$
>  <compound>
CCN(CC)CCNC(=O)c1cccc2c1-c1ccccc1C2=O

>  <propertyMeasured>
TGI

>  <result>
> 100 µM

$$$$
>  <compound>
COC(=O)C1(C(=O)OC)N=C(C)OC1c1ccccc1O (configuration not stated)

>  <propertyMeasured>
TGI

>  <result>
> 100 µM

$$$$
>  <compound>
COc1ccc(CN2C(=O)[C@@H]3Cc4c(OC)c(C)c(OC)c(OC)c4[C@H](/C2=C\c2cc(OC)c(OC)c(C)c2OC)N3C(=O)OC(C)C)cc1

>  <propertyMeasured>
TGI

>  <result>
> 100 µM

$$$$
>  <compound>
CC1=NN(c2ccc(S(=O)(=O)O)cc2)C2(C1)C(Cl)C(=O)N2c1nc2ccccc2s1 (configuration not stated)

>  <propertyMeasured>
TGI

>  <result>
> 100 µM

$$$$
>  <compound>
CCCCC(=O)N(c1ccc(Nc2c3ccccc3nc3cc([N+](=O)[O-])ccc23)cc1)S(C)(=O)=O

>  <propertyMeasured>
TGI

>  <result>
> 100 µM

$$$$
>  <compound>
O=C1CSC(c2ccccc2O)N1c1ccc2c(c1)Oc1c(Cl)c3c(c(Cl)c1=N2)Oc1cc(N2C(=O)CSC2c2ccccc2O)ccc1N=3 (configuration not stated)

>  <propertyMeasured>
TGI

>  <result>
71.3 µM

$$$$
